Values from patent US10457703B2

Target: human FXR (NR1H4) (Homo sapiens (Human), UniProt Q96RI1)
Sequence (Q96RI1 whole entry, the tested form may be a part): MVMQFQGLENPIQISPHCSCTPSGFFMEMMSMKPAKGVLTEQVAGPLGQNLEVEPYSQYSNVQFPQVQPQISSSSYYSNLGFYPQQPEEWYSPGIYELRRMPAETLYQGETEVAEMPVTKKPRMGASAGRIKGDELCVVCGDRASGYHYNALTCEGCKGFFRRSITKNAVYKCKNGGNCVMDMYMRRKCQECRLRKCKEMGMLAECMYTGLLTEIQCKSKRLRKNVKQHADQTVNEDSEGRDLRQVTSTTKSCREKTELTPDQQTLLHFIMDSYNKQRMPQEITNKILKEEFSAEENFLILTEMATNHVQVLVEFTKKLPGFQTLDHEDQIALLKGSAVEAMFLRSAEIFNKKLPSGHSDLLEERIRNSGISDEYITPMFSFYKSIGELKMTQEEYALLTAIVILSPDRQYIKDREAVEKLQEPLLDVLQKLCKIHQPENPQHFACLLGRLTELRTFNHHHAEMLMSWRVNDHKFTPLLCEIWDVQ
Experiment: Human FXR (NR1H4) Assay (Gal4 promoter driven luciferase reporter, Indigo Bioscience kit)
Details: Human FXR (NR1H4) Assay, potency ranges
pEC50: −log10 of the molar value.
observable: pEC50

CC[C@H]1[C@@H](O)[C@@H]2[C@H](CC[C@]3(C)[C@@H]([C@H](C)CCOC(=O)N4CCOCC4)CC[C@@H]23)[C@@]2(C)CC[C@@H](O)C[C@@H]12 : 6.00 to 7.00
CC[C@H]1[C@@H](O)[C@@H]2[C@H](CC[C@]3(C)[C@@H]([C@H](C)CCOC(=O)NS(=O)(=O)c4ccc(Cl)cc4)CC[C@@H]23)[C@@]2(C)CC[C@@H](O)C[C@@H]12 : > 7.00
CC[C@H]1[C@@H](O)[C@@H]2[C@H](CC[C@]3(C)[C@@H]([C@H](C)CCOC(=O)NC4CC4)CC[C@@H]23)[C@@]2(C)CC[C@@H](O)C[C@@H]12 : > 7.00

Please supply the value of reported pEC50 for the item "CC[C@H]1[C@@H](O)[C@@H]2[C@H](CC[C@]3(C)[C@@H]([C@H](C)COC(=O)NC4CC4)CC[C@@H]23)[C@@]2(C)CC[C@@H](O)C[C@@H]12" 5.00 to 6.00

Please supply the value of reported pEC50 for the item "CC[C@H]1[C@@H](O)[C@@H]2[C@H](CC[C@]3(C)[C@@H]([C@H](C)CCOC(=O)NS(=O)(=O)c4cc(C(F)(F)F)cc(C(F)(F)F)c4)CC[C@@H]23)[C@@]2(C)CC[C@@H](O)C[C@@H]12" 5.00 to 6.00

----------
Molecular target: UniProtKB Q96RI1
Experiment: Human FXR (NR1H4) Assay (Gal4 promoter driven luciferase reporter, Indigo Bioscience kit)
Assay type: cell-based
Details: read-out: Efficacy (%)
Recorded Emax, one value per entry.
Value and unit, in that order.

# count of solved cases: 4
CC[C@H]1[C@@H](O)[C@@H]2[C@H](CC[C@]3(C)[C@@H]([C@H](C)CCOC(=O)NC(C(C)C)C(C)C)CC[C@@H]23)[C@@]2(C)CC[C@@H](O)C[C@@H]12 [Example 176] : 368%
CC[C@H]1[C@@H](O)[C@@H]2[C@H](CC[C@]3(C)[C@@H]([C@H](C)CCOC(=O)NS(=O)(=O)c4ccc(OC(C)C)cc4)CC[C@@H]23)[C@@]2(C)CC[C@@H](O)C[C@@H]12 [Example 100] : 316%
CC[C@H]1[C@@H](O)[C@@H]2[C@H](CC[C@]3(C)[C@@H]([C@H](C)COC(=O)NS(=O)(=O)c4ccc5ncccc5c4)CC[C@@H]23)[C@@]2(C)CC[C@@H](O)C[C@@H]12 [Example 23] : 182%
CC[C@H]1[C@@H](O)[C@@H]2[C@H](CC[C@]3(C)[C@@H]([C@H](C)COC(=O)NS(=O)(=O)c4ccc(-c5ccncc5)cc4)CC[C@@H]23)[C@@]2(C)CC[C@@H](O)C[C@@H]12 [Example 35] : 152%

# return Emax of CC[C@H]1[C@@H](O)[C@@H]2[C@H](CC[C@]3(C)[C@@H]([C@H](C)CCOC(=O)N4CCCCC4CO)CC[C@@H]23)[C@@]2(C)CC[C@@H](O)C[C@@H]12 (stereo partly drawn) [Example 180] (system: UniProtKB Q96RI1) 390%

# return Emax of CC[C@H]1[C@@H](O)[C@@H]2[C@H](CC[C@]3(C)[C@@H]([C@H](C)COC(=O)NS(=O)(=O)c4ccc(-c5ncco5)cc4)CC[C@@H]23)[C@@]2(C)CC[C@@H](O)C[C@@H]12 [Example 44-p] (system: UniProtKB Q96RI1) 218%

# return Emax of CC[C@H]1[C@@H](O)[C@@H]2[C@H](CC[C@]3(C)[C@@H]([C@H](C)CCOC(=O)NS(=O)(=O)c4cccc(Cl)c4)CC[C@@H]23)[C@@]2(C)CC[C@@H](O)C[C@@H]12 [Example 65] (system: UniProtKB Q96RI1) 322%

# return Emax of CC[C@H]1[C@@H](O)[C@@H]2[C@H](CC[C@]3(C)[C@@H]([C@H](C)CCOC(=O)NCCc4ccccn4)CC[C@@H]23)[C@@]2(C)CC[C@@H](O)C[C@@H]12 [Example 186] (system: UniProtKB Q96RI1) 373%

# return Emax of CC[C@H]1[C@@H](O)[C@@H]2[C@H](CC[C@]3(C)[C@@H]([C@H](C)CCCOC(=O)N4CCCCC4)CC[C@@H]23)[C@@]2(C)CC[C@@H](O)C[C@@H]12 [Example 165] (system: UniProtKB Q96RI1) 158%
